# System: CAF#2 (primary prostate cancer-associated fibroblasts of iCAF-like type)
# protocolNotes: drug sensitivity score (DSS2, normalised partial AUC of dose-response, 72 h CellTiter-Glo viability) (DSS (dimensionless)); higher = more sensitive (stronger growth inhibition / cytotoxicity); extreme values may be limits of the assay
Decision: drug sensitivity score compared against 10; not below it gives yes (1), below it gives no (0).

INSERT INTO measurements (compound, discretelabel) VALUES
  ('Nc1nc2[nH]cc(CCc3ccc(C(=O)N[C@@H](CCC(=O)O)C(=O)O)cc3)c2c(=O)[nH]1 [Pemetrexed] (tested concentration range 1-10000 nM)', 'no (0)'),
  ('C[C@@H](Nc1cc(F)cc(F)c1)c1cc(C(=O)N(C)C)cc2c(=O)cc(N3CCOCC3)oc12 [AZD-8186] (tested concentration range 0.1-1000 nM)', 'no (0)'),
  ('CCCCc1nc2cc(/C=C/C(=O)NO)ccc2n1CCN(CC)CC [Pracinostat] (tested concentration range 1-10000 nM)', 'yes (1)'),
  ('CC(C)c1cc(C(=O)N2Cc3ccc(CN4CCN(C)CC4)cc3C2)c(O)cc1O [Onalespib] (tested concentration range 0.2-2500 nM)', 'yes (1)');

Next up:
Hi team, for CNc1nc(-c2ccc3c(N)n[nH]c3c2)cc(N2C[C@@H](C(=O)NC3CCCCC3)CC[C@H]2C)n1 (tested concentration range 1-10000 nM) , is the recorded drug sensitivity score at or above 10?
no (0)
